molecular target: human 5-HT1A serotonergic receptor (Homo sapiens, UniProt P08908); assay: Radioreceptor binding, recombinant human 5-HT1A receptors ([3H]8-OH-DPAT, HeLa membranes); conditions: recombinant human receptor, [3H]8-OH-DPAT; Ki from IC50 by Cheng & Prusoff; read-out: Binding affinity for the 5-HT1A receptor, Ki
observation type: Ki (nM)
Report the value in nM with no unit label.

// below: answered compounds
COc1ccccc1N1CCN(CCNc2ccccc2C#N)CC1; 17.2
CS(=O)(=O)Nc1ccccc1N(CCN1CCN(c2cccc3[nH]ccc23)CC1)C(=O)C1CCCCC1; 1.03
COc1ccccc1N1CCN(CCN(C(=O)c2cncs2)c2ccccc2[N+](=O)[O-])CC1; 21.2

Data point: COc1ccccc1N1CCN(CC(C)Nc2ccccc2[N+](=O)[O-])CC1 (stereo not shown) ; Ki = 34

----------
Entries and their measured Ki follow.
Molecular target: human 5-HT1A serotonergic receptor (Homo sapiens, UniProt P08908)
Sequence (P08908 1-422): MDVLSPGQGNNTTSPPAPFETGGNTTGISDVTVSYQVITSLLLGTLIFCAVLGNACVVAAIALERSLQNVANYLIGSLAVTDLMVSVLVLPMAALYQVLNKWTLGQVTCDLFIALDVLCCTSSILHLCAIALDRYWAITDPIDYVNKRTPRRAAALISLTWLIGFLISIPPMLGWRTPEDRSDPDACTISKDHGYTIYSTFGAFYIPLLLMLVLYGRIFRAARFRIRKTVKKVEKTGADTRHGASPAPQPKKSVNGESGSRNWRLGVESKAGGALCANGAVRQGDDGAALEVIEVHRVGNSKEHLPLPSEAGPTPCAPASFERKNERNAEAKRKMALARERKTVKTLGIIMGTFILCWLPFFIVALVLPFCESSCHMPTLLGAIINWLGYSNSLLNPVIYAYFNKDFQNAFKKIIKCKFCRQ
Assay: Radioreceptor binding, recombinant human 5-HT1A receptors ([3H]8-OH-DPAT, HeLa membranes)
Details: recombinant human receptor, [3H]8-OH-DPAT; Ki from IC50 by Cheng & Prusoff; read-out: Binding affinity for the 5-HT1A receptor, Ki
Report the value in nM with no unit label.

// below: answered compounds
COc1ccccc1N1CCN(CCN(C(=O)C2CCCCC2)c2ccccc2Oc2ccccc2)CC1 [Example 6]; 0.45
COc1ccccc1N1CCN(CCN(C(=O)C2CCCCC2)c2ccccc2OC)CC1 [Example 23]; 0.14

Measured Ki for this entry O=C(c1cnccn1)N(CCN1CCN(c2cccc3[nH]ccc23)CC1)c1ccccc1[N+](=O)[O-] [Example 53] on human 5-HT1A serotonergic receptor (Homo sapiens, UniProt P08908): 11.7

Measured Ki for this entry COc1ccccc1N1CCN(CCNc2ccccc2C(C)=O)CC1 [Example 11] on human 5-HT1A serotonergic receptor (Homo sapiens, UniProt P08908): 2.92

----------
biological target: post-synaptic 5-HT1A receptor (Rattus norvegicus, UniProt P19327); construct: from tissue; host or cells: whole animal, male Sprague-Dawley rats; assay: Inhibition of forepaw treading induced by 8-OH-DPAT in rats (post-synaptic antagonism); type: in vivo; conditions: rat, iv, read-out: Post-synaptic 5-HT1A ID50; heading: Post-synaptic 5-HT1A ID50; dose blocking 50% of forepaw treading induced by 1 mg/kg s.c. 8-OH-DPAT in rats; compound i.v.
Sequence (P19327 whole entry): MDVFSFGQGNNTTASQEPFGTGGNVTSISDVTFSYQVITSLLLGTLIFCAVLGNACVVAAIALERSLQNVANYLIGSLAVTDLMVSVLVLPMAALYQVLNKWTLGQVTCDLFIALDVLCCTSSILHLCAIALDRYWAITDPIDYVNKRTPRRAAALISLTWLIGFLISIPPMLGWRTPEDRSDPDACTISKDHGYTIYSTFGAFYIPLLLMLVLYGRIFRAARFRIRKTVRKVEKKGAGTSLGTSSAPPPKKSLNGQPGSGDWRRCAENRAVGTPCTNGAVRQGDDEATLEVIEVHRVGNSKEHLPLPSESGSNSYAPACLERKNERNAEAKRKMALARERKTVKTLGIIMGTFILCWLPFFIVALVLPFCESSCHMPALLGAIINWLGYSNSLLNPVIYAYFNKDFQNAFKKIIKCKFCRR
Entries and their measured ED50 follow.
Write the figure, then the unit, nothing else.

// below: answered compounds
COc1ccccc1N1CCN(CCN(C(=O)C2CCCCC2)c2ccccc2)CC1 [Compound A, reference compound]; 0.35 mg/kg
O=C(C1CCCCC1)N(CCN1CCN(c2cccc3[nH]ccc23)CC1)c1ccccc1[N+](=O)[O-] [Example 13]; 0.082 mg/kg

Data point: COc1ccccc1N1CCN(CCN(C(=O)C2CCCCC2)c2ccccc2[N+](=O)[O-])CC1 [Example 2] ; ED50 = 0.036 mg/kg

Data point: COc1ccccc1N1CCN(CCN(C(=O)C2CCCCC2)c2ccccc2OC)CC1 [Example 23] ; ED50 = 0.177 mg/kg

Data point: COC(=O)c1ccccc1N(CCN1CCN(c2ccccc2OC)CC1)C(=O)C1CCCCC1 [Example 18] ; ED50 = 0.084 mg/kg

----------
tested on: urinary bladder; test: Cystometric parameters (cystometrogram) in conscious rats; assay type: in vivo, rat; conditions: Rattus norvegicus, iv, 0.25 h; i.v. 1000 μg/kg, after vs before; read-out: BVC % of change
observation type: change in vivo at 1 mg/kg (%)
Report the value in % with no unit label.

Data point: COc1ccccc1N1CCN(CCN(C(=O)C2CCCCC2)c2ccccc2OCC(F)(F)F)CC1 [Example 42] ; change in vivo at 1 mg/kg = 41.7

Data point: COc1ccccc1N1CCN(CCN(C(=O)C2CCCCC2)c2ccccc2[N+](=O)[O-])CC1 [Example 2] ; change in vivo at 1 mg/kg = 21

Data point: COC(=O)c1ccccc1N(CCN1CCN(c2ccccc2OC)CC1)C(=O)C1CCCCC1 [Example 18] ; change in vivo at 1 mg/kg = 40.3

Data point: COc1ccccc1N1CCN(CCN(C(=O)C2CCCCC2)c2ccccc2)CC1 [Compound A, reference compound] ; change in vivo at 1 mg/kg = 24.4

Data point: COc1ccccc1N1CCN(CCN(C(=O)C2CCCCC2)c2ccccc2OC)CC1 [Example 23] ; change in vivo at 1 mg/kg = 34.5

Data point: Cc1c(-c2ccccc2)oc2c(C(=O)OCCN3CCCCC3)cccc2c1=O [Flavoxate, flavoxate, reference compound] ; change in vivo at 1 mg/kg = 26.1

Data point: COc1ccccc1N1CCN(CCN(C(=O)C2CCCCC2)c2ccccc2I)CC1 [Example 8] ; change in vivo at 1 mg/kg = 35

Data point: O=C(C1CCCCC1)N(CCN1CCN(c2cccc3[nH]ccc23)CC1)c1ccccc1OC(F)(F)F [Example 51] ; change in vivo at 1 mg/kg = 36.5

----------
biological target: human 5-HT1A serotonergic receptor (Homo sapiens, UniProt P08908); assay: Radioreceptor binding, recombinant human 5-HT1A receptors ([3H]8-OH-DPAT, HeLa membranes); conditions: recombinant human receptor, [3H]8-OH-DPAT; Ki from IC50 by Cheng & Prusoff; read-out: Binding affinity for the 5-HT1A receptor, Ki
Entries and their measured Ki follow.
Report the value in nM with no unit label.

// below: answered compounds
COc1ccccc1N1CCN(CCNc2ccccc2C(F)(F)F)CC1; 18.2
COc1ccccc1NCCN1CCN(c2cccc3[nH]ccc23)CC1; 2.33
CCNC(=O)c1ccccc1N(CCN1CCN(c2ccccc2OC)CC1)C(=O)C1CCCCC1; 8.91
O=[N+]([O-])c1ccccc1NCCN1CCN(c2cccc3[nH]ccc23)CC1; 4.77
O=C(C1CCCCC1)N(CCN1CCN(Cc2cc(Cl)ccc2Cl)CC1)c1ccccc1[N+](=O)[O-]; 6.2
COc1ccccc1N1CCN(CCN(C(=O)C2(C)CCCCC2)c2ccccc2[N+](=O)[O-])CC1; 2.65
COc1ccccc1N1CCN(CCN(C(=O)C2CCCCC2)c2ccccc2OC(F)(F)F)CC1; 0.64

Now, please, on to the next compound.
Data point: COc1ccc(Br)c(CN2CCN(CCNc3ccccc3OC(F)(F)F)CC2)c1 ; Ki = 2.02

----------
system: rhythmic bladder voiding contractions; test: Volume-induced rhythmic bladder voiding contractions in anaesthetized rats; assay type: in vivo, rat; conditions: Rattus norvegicus, 10 min; extrapolated dose inducing 10 min of disappearance of the contractions; intravenous, anaesthetized rats; read-out: ED10 min
Entries and their measured ED (10 min disappearance of contractions) follow.
Report the value in mg/kg with no unit label.

// below: answered compounds
O=C(C1CCCCC1)N(CCN1CCN(c2cccc3[nH]ccc23)CC1)c1ccccc1OC(F)(F)F [Example 51]; 0.276
COc1ccccc1N1CCN(CCN(C(=O)C2CCCCC2)c2ccccc2N)CC1 [Example 27]; 0.131
COc1ccccc1N1CCN(CCNc2ccccc2C#N)CC1 [Example 10]; 0.122

Data point: COc1ccccc1N1CCN(CCN(C(=O)C2CCCCC2)c2ccccc2[N+](=O)[O-])CC1 [Example 2] ; ED (10 min disappearance of contractions) = 0.06

Data point: COc1cc(N)ccc1N1CCN(CCN(C(=O)C2CCCCC2)c2ccccc2OCC(F)(F)F)CC1 [Example 66] ; ED (10 min disappearance of contractions) = 0.167

Data point: COc1ccccc1N(CCN1CCN(c2cccc3[nH]ccc23)CC1)C(=O)C1CCCCC1 [Example 48] ; ED (10 min disappearance of contractions) = 0.04

Data point: COc1ccccc1N1CCN(CCN(C(=O)C2CCCCC2)c2ccccc2C#N)CC1.Cl [Example 43] ; ED (10 min disappearance of contractions) = 0.052

----------
Target: human 5-HT1A serotonergic receptor (Homo sapiens, UniProt P08908)
Sequence (P08908 1-422): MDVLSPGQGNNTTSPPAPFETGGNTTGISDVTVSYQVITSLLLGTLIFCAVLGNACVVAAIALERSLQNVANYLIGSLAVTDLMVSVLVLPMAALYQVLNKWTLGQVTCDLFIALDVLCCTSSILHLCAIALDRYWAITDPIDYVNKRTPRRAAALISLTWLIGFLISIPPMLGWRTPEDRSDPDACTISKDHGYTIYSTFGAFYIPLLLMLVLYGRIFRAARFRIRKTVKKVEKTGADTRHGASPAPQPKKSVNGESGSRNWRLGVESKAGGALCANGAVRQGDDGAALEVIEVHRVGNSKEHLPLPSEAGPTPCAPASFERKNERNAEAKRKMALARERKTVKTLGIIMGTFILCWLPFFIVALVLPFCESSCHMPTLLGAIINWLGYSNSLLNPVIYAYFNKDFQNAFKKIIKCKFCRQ
Assay: Radioreceptor binding, recombinant human 5-HT1A receptors ([3H]8-OH-DPAT, HeLa membranes)
Details: recombinant human receptor, [3H]8-OH-DPAT; Ki from IC50 by Cheng & Prusoff; read-out: Binding affinity for the 5-HT1A receptor, Ki
pKi: −log10 of the molar value.
Label Fulfilled when pKi is at or above 9; anything below gets Not fulfilled.

COc1ccccc1N(CCN1CCN(c2cccc3[nH]ccc23)CC1)C(=O)C1CCCCC1; Fulfilled

Decide: pKi of FC(F)(F)Oc1ccccc1NCCN1CCN(c2ccccc2OC(F)(F)F)CC1 >= 9?
Not fulfilled

Decide: pKi of COc1ccccc1N1CCN(CCN(C(=O)c2ccoc2)c2ccccc2[N+](=O)[O-])CC1 >= 9?
Not fulfilled
